Catalogue of compounds with associated melting point

Here are 5 compounds together with their reported answers.
cpdSmiles	observed
COc1c(OCC(=O)N2CCOCC2)ccc2c1N=C(/C=C(\O)c1cccnc1)N1CCN=C21.Cl	240 to 241 °C
COc1cc2c(cc1OC)C1=NCCN1C(NC(C)=O)=N2	240 to 241 °C
O=C(NC1=Nc2cc(OCC(=O)N3CCOCC3)ccc2C2=NCCN12)c1cccnc1	232 to 236 °C (dec.)
COC(=O)c1cccc(C(=O)NC2=Nc3ccccc3C3=NCCN23)c1	224 to 226 °C
Cl.O/C(=C\C1=Nc2ccccc2C2=NCCN12)c1ccsc1	> 300 °C

Query :: I'd like to know its melting point. The compound in question is `Cc1ccc(C(=O)NC2=Nc3cc(N4CCOCC4)ccc3C3=NCCN23)cn1.Cl`
Result :: 267 °C (dec.)

Query :: I'd like to know its melting point. The compound in question is `CSc1ncccc1C(=O)NC1=Nc2ccccc2C2=NCCN12`
Result :: 233 to 234 °C

Query :: I'd like to know its melting point. The compound in question is `Cc1ccc2c(c1)N=C(/C=C(\O)c1cccnc1)N1CCN=C21.Cl`
Result :: > 330 °C

Query :: I'd like to know its melting point. The compound in question is `CCC/C(O)=C/C1=Nc2ccccc2C2=NCCN12`
Result :: 113 °C

Query :: I'd like to know its melting point. The compound in question is `Cc1cccc2c1N=C(/C=C(\O)c1cccnc1)N1CCN=C21`
Result :: 248 °C

Query :: I'd like to know its melting point. The compound in question is `CS(=O)(=O)c1ccc(C(=O)NC2=Nc3ccccc3C3=NCCN23)cc1.Cl`
Result :: 320 °C (dec.)

Query :: I'd like to know its melting point. The compound in question is `COc1ccc2c(c1OCCN1CCOCC1)N=C(/C=C(\O)c1ccc(NC(C)=O)nc1)N1CCN=C21.Cl`
Result :: 260 °C

Query :: I'd like to know its melting point. The compound in question is `O=C(NC1=Nc2ccccc2C2=NCCN12)c1cccc(Cl)c1.O=C(O)C(F)(F)F`
Result :: 233 to 235 °C

Query :: I'd like to know its melting point. The compound in question is `Cc1nc(N)ccc1C(=O)NC1=Nc2ccccc2C2=NCCN12`
Result :: 146 to 148 °C

Query :: I'd like to know its melting point. The compound in question is `Cl.O=C(NC1=Nc2c(cccc2C(F)(F)F)C2=NCCN12)c1cccnc1`
Result :: 263 °C

Query :: I'd like to know its melting point. The compound in question is `Cl.O=C(NC1=Nc2ccccc2C2=NCCN12)c1ccsc1`
Result :: 297 °C (dec.)

Query :: I'd like to know its melting point. The compound in question is `COc1ccc2c(c1)N=C(NC(=O)c1ccc(N)nc1)N1CCN=C21`
Result :: 279 to 282 °C

Query :: I'd like to know its melting point. The compound in question is `O=C(NC1=Nc2ccccc2C2=NCCN12)c1cccnc1Cl`
Result :: 198 to 199 °C

----------
Catalogue of molecules with associated melting point

Here are 6 molecules together with their reported answers.
molecule	melting point
O/C(=C\C1=Nc2cc(CN3CCOCC3)ccc2C2=NCCN12)c1cccnc1 [Example 1-111]	204 °C
COc1ccc2c(c1)C1=NCCN1C(NC(=O)c1cccnc1)=N2.Cl [Example 2-93]	> 300 °C
Nc1cncc(C(=O)NC2=Nc3ccccc3C3=NCCN23)c1 [Example 2-144]	263 to 266 °C
Cl.O/C(=C\C1=Nc2cc(N3CCCC(O)C3)ccc2C2=NCCN12)c1ccc2[nH]cnc2c1 (stereo not shown) [Example 1-210]	> 300 °C
NC(=O)COc1ccc2c(c1)N=C(NC(=O)c1cccnc1)N1CCN=C21 [Example 2-206]	296 °C
COc1cc2c(cc1OC)C1=NCCN1C(NC(=O)c1ccc3[nH]cnc3c1)=N2 [Example 2-60]	246 °C

Query :: I'd like to know its melting point. The molecule in question is O=C(NC1=Nc2ccccc2C2=NCCN12)c1ccc(F)cc1 [Example 2-225]
Result :: 210 to 212 °C

Query :: I'd like to know its melting point. The molecule in question is CC(C)(C)OC(=O)CCc1ccc2c(n1)N=C(/C=C(\O)c1cccnc1)N1CCN=C21 [Example 1-163]
Result :: 200 °C

Query :: I'd like to know its melting point. The molecule in question is Cl.O=C(NC1=Nc2cc(OCCn3cccc3)ccc2C2=NCCN12)c1cccnc1 [Example 2-196]
Result :: 239 °C

Query :: I'd like to know its melting point. The molecule in question is COc1ccc2c(c1)N=C(NC(=O)c1cccnc1)N1CCN=C21.Cl [Example 2-21]
Result :: 292 °C (dec.)

Query :: I'd like to know its melting point. The molecule in question is COc1c(OCCN(C)C)ccc2c1N=C(/C=C(\O)c1cccnc1)N1CCN=C21 [Example 1-19]
Result :: 183 to 184 °C

----------
Catalogue of compounds with associated melting point

Query :: I'd like to know its melting point. The compound in question is `COc1cc2c(c(OC)c1C)N=C(/C=C(\O)c1ccc3[nH]cnc3c1)N1CCN=C21.Cl`
Result :: > 285 °C

Query :: I'd like to know its melting point. The compound in question is `O=C(NC1=Nc2ccccc2C2=NCCN12)c1ccccc1[N+](=O)[O-].O=C(O)C(F)(F)F`
Result :: 198 to 200 °C

Query :: I'd like to know its melting point. The compound in question is `O=C(NC1=Nc2cc(Cl)ccc2C2=NCCN12)c1ccc2[nH]cnc2c1`
Result :: 288 °C

Query :: I'd like to know its melting point. The compound in question is `O/C(=C\C1=Nc2ncccc2C2=NCCN12)c1ccc2[nH]cnc2c1`
Result :: > 300 °C

----------
- testSystem: Recombinant human PI3Kγ (full length human PI3K p110γ) (Homo sapiens, UniProt P48736)
- Construct: full length human PI3K p110γ fused with a His6-tag at the C-terminus; His6 (C); purchased ALEXIS BIOCHEMICALS #201-055-C010; host or cells: S. frugiperda 9 insect cells
- Sequence (P48736 whole entry, the tested form may be a part): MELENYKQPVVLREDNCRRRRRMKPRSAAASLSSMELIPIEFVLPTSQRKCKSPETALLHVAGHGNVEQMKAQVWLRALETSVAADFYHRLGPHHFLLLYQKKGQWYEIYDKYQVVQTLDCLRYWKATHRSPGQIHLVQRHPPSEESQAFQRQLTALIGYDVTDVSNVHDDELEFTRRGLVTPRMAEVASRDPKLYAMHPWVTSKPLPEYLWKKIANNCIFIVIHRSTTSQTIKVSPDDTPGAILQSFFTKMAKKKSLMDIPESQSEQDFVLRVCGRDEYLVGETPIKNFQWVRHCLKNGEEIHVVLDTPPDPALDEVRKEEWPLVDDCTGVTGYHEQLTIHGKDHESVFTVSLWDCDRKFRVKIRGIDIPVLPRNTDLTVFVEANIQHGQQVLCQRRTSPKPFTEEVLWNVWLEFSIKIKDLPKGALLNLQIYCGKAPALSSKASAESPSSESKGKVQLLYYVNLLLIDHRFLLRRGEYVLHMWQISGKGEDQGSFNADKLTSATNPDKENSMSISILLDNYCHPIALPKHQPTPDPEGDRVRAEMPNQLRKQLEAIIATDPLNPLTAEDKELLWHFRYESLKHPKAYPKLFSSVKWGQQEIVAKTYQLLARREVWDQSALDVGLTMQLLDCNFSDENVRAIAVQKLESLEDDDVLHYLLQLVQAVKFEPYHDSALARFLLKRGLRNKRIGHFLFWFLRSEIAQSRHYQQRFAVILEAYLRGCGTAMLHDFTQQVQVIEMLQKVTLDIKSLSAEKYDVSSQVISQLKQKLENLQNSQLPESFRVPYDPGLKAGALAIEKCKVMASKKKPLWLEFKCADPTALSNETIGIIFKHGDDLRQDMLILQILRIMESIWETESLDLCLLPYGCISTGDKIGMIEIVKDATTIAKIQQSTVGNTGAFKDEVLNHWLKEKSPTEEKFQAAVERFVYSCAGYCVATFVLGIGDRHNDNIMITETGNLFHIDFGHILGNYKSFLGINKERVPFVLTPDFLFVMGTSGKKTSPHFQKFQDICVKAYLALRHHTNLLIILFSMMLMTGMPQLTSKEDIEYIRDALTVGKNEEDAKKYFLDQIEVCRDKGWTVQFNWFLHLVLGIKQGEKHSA
- measurementDescription: Kinase assay of PI3Kγ (solid-phase lipid kinase assay)
- Assay type: biochemical
- experimentalContext: in vitro PI3K-γ inhibitory activity, class symbols; read-out: in vitro PI3K-gamma
Catalogue of compounds with associated IC50

cpdSmiles	observed
O=C(NC1=Nc2c(cccc2C(F)(F)F)C2=NCCN12)c1ccc2[nH]cnc2c1	< 100 nM
COc1cc2c(cc1OC)C1=NCCN1C(NC(=O)c1ccc(N)nc1)=N2.Cl	100 to 500 nM
Cl.O=C(NC1=Nc2cc(OCCCO)ccc2C2=NCCN12)c1cccnc1	100 to 500 nM
Cc1cccc2c1N=C(NC(=O)c1cccnc1)N1CCN=C21	100 to 500 nM
CCn1nc(C)cc1C(=O)NC1=Nc2ccccc2C2=NCCN12	100 to 500 nM
COc1cccc2c1N=C(NC(=O)c1cncc(O)c1)N1CCN=C21.Cl	< 100 nM
O=C(NC1=Nc2ccccc2C2=NCCN12)c1ccsc1	100 to 500 nM
Cc1ccc(C(=O)NC2=Nc3ccccc3C3=NCCN23)cn1	< 100 nM

Query :: I'd like to know its IC50. The compound in question is `Cc1nc(C)c(C(=O)NC2=Nc3cc(N4CCOCC4)ccc3C3=NCCN23)s1.Cl`
Result :: < 100 nM

----------
measurementKind: melting point

Query :: I'd like to know its melting point. The compound in question is `Cl.O=C(NC1=Nc2ccccc2C2=NCCN12)c1sccc1Cl`
Result :: 298 °C (dec.)

Query :: I'd like to know its melting point. The compound in question is `Cc1ccc2c(c1)C1=NCCN1C(NC(=O)c1cccnc1)=N2`
Result :: 210 °C

Query :: I'd like to know its melting point. The compound in question is `COc1cccc2c1N=C(NC(=O)c1cc3cccnc3nc1C)N1CCN=C21`
Result :: 183 to 184 °C

Query :: I'd like to know its melting point. The compound in question is `CC(C)n1nnc2cc(C(=O)NC3=Nc4ccccc4C4=NCCN34)ccc21`
Result :: 202 to 203 °C

----------
- testSystem: Recombinant human PI3Kγ (full length human PI3K p110γ) (Homo sapiens, UniProt P48736)
- Construct: full length human PI3K p110γ fused with a His6-tag at the C-terminus; His6 (C); purchased ALEXIS BIOCHEMICALS #201-055-C010; host or cells: S. frugiperda 9 insect cells
- measurementDescription: Kinase assay of PI3Kγ (solid-phase lipid kinase assay)
- Type: biochemical
- experimentalContext: Table 1, isozyme not given; read-out: in vitro
measurementKind: IC50

Here are 6 molecules together with their reported answers.
molecule	observed
CCOc1ccc2c(c1OC)N=C(/C=C(\O)c1cccnc1)N1CCN=C21	< 100 nM
O/C(=C\C1=Nc2cc(C(F)(F)F)ccc2C2=NCCN12)c1cccnc1 [Example 1-121]	500 to 2000 nM
CN(C)C(=O)NCCc1ccc2c(n1)N=C(/C=C(\O)c1cccnc1)N1CCN=C21	100 to 500 nM
O/C(=C\C1=Nc2ccccc2C2=NCCN12)c1cnccn1	100 to 500 nM
COc1cccc2c1N=C(/C=C(\O)c1cccnc1)N1CCN=C21	< 100 nM
O/C(=C\C1=Nc2ccccc2C2=NCCN12)C(F)(F)F	500 to 2000 nM

Query :: I'd like to know its IC50. The molecule in question is `O/C(=C\C1=Nc2ccccc2C2=NCCN12)c1cc[nH]c1`
Result :: < 100 nM

Query :: I'd like to know its IC50. The molecule in question is `OCCCOc1cccc2c1N=C(/C=C(\O)c1cccnc1)N1CCN=C21`
Result :: < 100 nM

Query :: I'd like to know its IC50. The molecule in question is CC(=O)Nc1ccc(/C(O)=C/C2=Nc3cc(N4CCCC(O)C4)ccc3C3=NCCN23)cn1.Cl (stereo not drawn)
Result :: 100 to 500 nM
